B1: 2K2A (parent)
chain: ELREAFRLYDKEGNGYISTDVMREILAELDETLSSEDLDAMIDEIDADGSGTVDFEEFMGVMT

- Variants of: B1
- assay.explanation: folding stability dG (cDNA display proteolysis); higher = more stable
- assay.setup: PBS, room temperature

mutation.string	folding stability dG
T63G	1.85 kcal/mol
G13S	1.18 kcal/mol
E1F	2.36 kcal/mol
A40I	1.77 kcal/mol
E28P	-0.155 kcal/mol
S18N	1.16 kcal/mol
R3G	1.48 kcal/mol
T52L	1.65 kcal/mol
D46G	0.581 kcal/mol
E56T	1.69 kcal/mol
D48C	1.4 kcal/mol
M41T	0.556 kcal/mol
L33V	0.861 kcal/mol
E28H	2.2 kcal/mol
D39T	1.3 kcal/mol
E56M	1.64 kcal/mol
V61H	1.67 kcal/mol
K11H	1.69 kcal/mol
E4F	1.32 kcal/mol
L8I	1.8 kcal/mol
L2N	0.689 kcal/mol
G51D	0.686 kcal/mol
V53P	-0.828 kcal/mol
L33P	-0.18 kcal/mol
M59E	1.41 kcal/mol
T63P	1 kcal/mol
E36Y	1.81 kcal/mol
D20E	2.16 kcal/mol
E28A	2.46 kcal/mol
D39R	1.41 kcal/mol
I17T	-0.998 kcal/mol
D39M	1.32 kcal/mol
T52G	1.02 kcal/mol
D46C	0.854 kcal/mol
F55L	1.66 kcal/mol
T63M	2.17 kcal/mol
L33H	0.717 kcal/mol
Y9N	0.71 kcal/mol
G49Q	1.77 kcal/mol
D54N	2.26 kcal/mol
L26F	1.04 kcal/mol
A27T	1.6 kcal/mol
D30F	2.19 kcal/mol
E57L	1.9 kcal/mol
F55C	0.683 kcal/mol
V53S	0.029 kcal/mol
E28N	2.22 kcal/mol
L33A	1.02 kcal/mol
F6P	0.281 kcal/mol
I45V	1.57 kcal/mol
E44N	1.95 kcal/mol
S18H	1.54 kcal/mol
D30N	2.1 kcal/mol
E4H	1.36 kcal/mol
T19D	0.211 kcal/mol
K11A	1.74 kcal/mol
M59N	0.889 kcal/mol
D30A	1.28 kcal/mol
R7E	1.8 kcal/mol
K11Y	1.63 kcal/mol
V61E	0.207 kcal/mol
E56L	1.88 kcal/mol
F6H	0.31 kcal/mol
G49S	1.63 kcal/mol
Y16N	0.623 kcal/mol
V21E	1.56 kcal/mol
L29K	1.52 kcal/mol
Y9G	0.24 kcal/mol
A5E	1.21 kcal/mol
F55Q	0.578 kcal/mol
R7H	1.72 kcal/mol
E28T	2.03 kcal/mol
T63K	1.97 kcal/mol
V21Y	1.61 kcal/mol
D46Q	0.665 kcal/mol
F6A	0.316 kcal/mol
T32I	0.878 kcal/mol

Value source: the MegaScale stability set (Tsuboyama et al. 2023)
